system: NUGC4 (P53 WT); experiment: Cell viability assay (CellTiter-Glo, 6 days), NUGC4; assay type: cell-based; details: Homo sapiens, NUGC-4, 144 h; cell viability, 6 days, CellTiter-Glo; read-out: NUGC4 (P53 WT) IC50
IC50 overview
Reply numerically in µM, unit not repeated.

Below, each entry is followed by its recorded IC50 result.
| Compound | Observed value |
| --- | --- |
| COc1cc(P(C)(C)=O)ccc1NCC#Cc1sc2c(N[C@@H]3CCN(C4CC5CCC(C4)O5)C[C@@H]3F)cccc2c1CC(F)(F)F (stereo partly drawn) | 5.89 |
| COc1cc(P(C)(C)=O)ncc1NCC#Cc1sc2c(N[C@@H]3CCN(C)C[C@@H]3F)cccc2c1CC(F)(F)F | 13.4 |

Q) Requested read-out: IC50. Entry: CNC(=O)c1ccc(NCC#Cc2sc3c(N[C@H]4CCN(C)C[C@H]4F)cccc3c2CC(F)(F)F)c(OC)c1 (racemic) [Example 41]
A) 6.14

* * *

molecular target: His-p53 Y220C (94-294) protein (Homo sapiens, UniProt P04637, Y220C); construct: His-p53 Y220C (94-294) protein; test: In vitro DNA binding assay (HTRF); settings: % activation normalized to 2 μM Ref-1a high control
pEC50: −log10 of the molar value.
// rule not met strictly below 7 in pEC50; rule met otherwise

Use the examples below as a reference point.
| Compound | Group |
| --- | --- |
| CN1CC[C@@H](Nc2cccc3c(CC(F)(F)F)c(C#CCNc4cc(P(C)(C)=O)n[nH]4)sc23)[C@@H](F)C1 | rule not met |
| COc1nc(P(C)(C)=O)cnc1NCC#Cc1sc2c(N[C@@H]3CCN(C)C[C@@H]3F)cccc2c1CC(F)(F)F | rule not met |
| CN1CC[C@@H](Nc2cccc3c(CC(F)(F)F)c(C#CCNc4ccc(P(C)(C)=O)c5ccoc45)sc23)[C@@H](F)C1 | rule met |

Q) Exam item: decide whether the reported pEC50 for `CN1CC[C@@H](Nc2cccc3c(CC(F)(F)F)c(C#CCNc4ccc(P(C)(C)=O)cc4C(N)=O)sc23)[C@@H](F)C1` is at least 7.
A) rule met

Q) Exam item: decide whether the reported pEC50 for COc1cc(S(C)(=O)=O)ccc1NCC#Cc1sc2c(NC3CC4CCC(C3)N4C)cccc2c1CC(F)(F)F (stereo not shown) is at least 7.
A) rule not met

Q) Exam item: decide whether the reported pEC50 for `CN1CCC(Nc2cccc3c(CC(F)(F)F)c(C#CCNc4ccc(S(C)(=O)=O)cc4OCC(F)(F)F)sc23)CC1` is at least 7.
A) rule not met

Q) Exam item: decide whether the reported pEC50 for COc1cc(C(=O)N2CCN(C)CC2)ccc1NCC#Cc1sc2c(NC3CCN(C)CC3F)cccc2c1CC(F)(F)F (stereo not shown) is at least 7.
A) rule met

* * *

IC50 overview
system: NUGC4 (P53 WT); test: Cell viability assay (CellTiter-Glo, 6 days), NUGC4; assay type: cell-based; conditions: Homo sapiens, NUGC-4, 144 h; cell viability, 6 days, CellTiter-Glo; read-out: NUGC4 (P53 WT) IC50
Reply numerically in µM, unit not repeated.

Below, each entry is followed by its recorded IC50 result.
| Molecule | Measured target | Observed value |
| --- | --- | --- |
| COc1cc(P(C)(C)=O)ccc1NCC#Cc1sc2c(N[C@@H]3CCN(C4CCCC4)C[C@@H]3F)cccc2c1CC(F)(F)F (relative stereo) | NUGC4 (P53 WT) | 1.75 |
| CN1CC[C@@H](Nc2cccc3c(CC(F)(F)F)c(C#CCNc4ccc(P(C)(C)=O)cc4C(=O)NC4COC4)sc23)[C@@H](F)C1 | NUGC4 (P53 WT) | 15.4 |

Consider now this further molecule.
Q) Under NUGC4 (P53 WT): IC50 value of COc1cc(P(C)(C)=O)ccc1NCC#Cc1sc2c(NC3C4CCC3CN(C)C4)cccc2c1CC(F)(F)F (stereo not drawn) ?
A) 7.23

* * *

system: NUGC4 (P53 WT); assay: Cell viability assay (CellTiter-Glo, 6 days), NUGC4; type: cell-based; details: Homo sapiens, NUGC-4, 144 h; cell viability, 6 days, CellTiter-Glo; read-out: NUGC4 (P53 WT) IC50
pIC50: −log10 of the molar value.
pIC50 vs 5: less than gives condition met; not less than gives condition not met.

Use the examples below as a reference point.
| Compound | Group |
| --- | --- |
| CN1CC[C@@H](Nc2cccc3c(CC(F)(F)F)c(C#CCNc4ccc(P(C)(C)=O)cc4S(C)(=O)=O)sc23)[C@@H](F)C1 [Example 175] | condition met |
| COc1cc(P(C)(C)=O)ccc1NCC#Cc1sc2c(N[C@@H]3CCN(C)C[C@@H]3C)cccc2c1CC(F)(F)F [Example 126] | condition not met |
| CN1CC[C@@H](Nc2cccc3c(CC(F)(F)F)c(C#CCNc4ccc(P(C)(C)=O)cc4C(=O)NC4CCOCC4)sc23)[C@@H](F)C1 [Example 216] | condition met |

Would you kindly look at the next entry?
Q) Please determine if CNC(=O)c1ccc(NCC#Cc2cc3c(N[C@@H]4CCN(C)C[C@@H]4F)cccc3n2CC(F)(F)F)c(OC)c1 [Example 110] is below 5 in terms of pIC50.
A) condition met

* * *

target: His-p53 Y220C (94-294) protein (Homo sapiens, UniProt P04637, Y220C); construct: His-p53 Y220C (94-294) protein; experiment: In vitro DNA binding assay (HTRF); conditions: % activation normalized to 2 μM Ref-1a high control
pEC50 overview
Remember, pEC50 is on a log scale: it is -log10 of the molar concentration.

Below, each entry is followed by its recorded pEC50 result.
| Molecule | Measured target | pEC50 |
| --- | --- | --- |
| CN1CCC(Nc2cccc3c(CC(F)(F)F)c(C#CCNc4ccc(S(C)(=O)=O)cc4OCC(F)F)sc23)CC1 | His-p53 Y220C (94-294) protein (Homo sapiens, UniProt P04637, Y220C) | 6.85 |
| CN1CCC(Nc2cccc3c(CC(F)(F)F)c(C#CCNc4ccc(S(C)(=O)=O)cc4OCF)sc23)CC1 | His-p53 Y220C (94-294) protein (Homo sapiens, UniProt P04637, Y220C) | 6.94 |
| COc1cc(-c2ncn(C)n2)ccc1NCC#Cc1sc2c(N[C@@H]3CCN(C)C[C@@H]3F)cccc2c1CC(F)(F)F | His-p53 Y220C (94-294) protein (Homo sapiens, UniProt P04637, Y220C) | 7.22 |
| COc1nc(P(C)(C)=O)ncc1NCC#Cc1sc2c(N[C@@H]3CCN(C)C[C@@H]3F)cccc2c1CC(F)(F)F | His-p53 Y220C (94-294) protein (Homo sapiens, UniProt P04637, Y220C) | 7.37 |
| COc1cc(P(C)(C)=O)cc(F)c1NCC#Cc1sc2c(N[C@@H]3CCN(C)C[C@@H]3F)cccc2c1CC(F)(F)F | His-p53 Y220C (94-294) protein (Homo sapiens, UniProt P04637, Y220C) | 6.69 |
| COc1cc(P(C)(C)=O)ccc1NCC#Cc1sc2c(NCC34CCCN3CCC4)cccc2c1CC(F)(F)F | His-p53 Y220C (94-294) protein (Homo sapiens, UniProt P04637, Y220C) | 6.65 |

Consider now this further molecule.
Q) Under His-p53 Y220C (94-294) protein (Homo sapiens, UniProt P04637, Y220C): pEC50 value of COc1cc(P(C)(C)=O)ccc1NCC#Cc1sc2c(NC3CCN(C)CC3C(F)(F)F)cccc2c1CC(F)(F)F (racemic) [Example 170] ?
A) 7.12

* * *

system: NUGC4 (P53 WT); assay: Cell viability assay (CellTiter-Glo, 6 days), NUGC4; type: cell-based; settings: Homo sapiens, NUGC-4, 144 h; cell viability, 6 days, CellTiter-Glo; read-out: NUGC4 (P53 WT) IC50
Recorded metric: IC50 (µM)
Reply numerically in µM, unit not repeated.

Q) Requested read-out: IC50. Entry: CNC(=O)c1ccc(NCC#Cc2sc3c(N[C@H]4CCN(C)C[C@H]4F)cccc3c2CC(F)(F)F)c(OC)c1 [Example 112]
A) 7.51

Q) Requested read-out: IC50. Entry: `CN1CC[C@@H](Nc2cccc3c(CC(F)(F)F)c(C#CCNc4ccc(P(C)(C)=O)cc4C(=O)NC4CC4)sc23)[C@@H](F)C1`
A) 37.3

* * *

EC50 overview
molecular target: His-p53 Y220C (94-294) protein (Homo sapiens, UniProt P04637, Y220C); construct: His-p53 Y220C (94-294) protein; assay: In vitro DNA binding assay (HTRF); conditions: % activation normalized to 2 μM Ref-1a high control
Reply numerically in µM, unit not repeated.

Q) Requested read-out: EC50. Entry: COc1cc(S(C)(=O)=O)ccc1NCC#Cc1sc2c(N[C@H]3CC[C@H](N4CC5(CCOCC5)C4)CC3)cccc2c1CC(F)(F)F [Example 18]
A) 0.173
